Would you kindly list EC50 for each of these compounds?
# target_entity: Aβ1-42 (Homo sapiens, UniProt P05067)
# Construct: dissolving Aβ1-42 or Tau-RD3 (Tau repeat domain 3) monomers in DMSO
# Sequence (P05067 672-713 limits assumed): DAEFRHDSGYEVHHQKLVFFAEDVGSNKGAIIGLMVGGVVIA
# assay_protocol: Amyloid-beta disaggregation test by Thioflavin-T analysis
# Type: biochemical
# condition_label: Aβ1-42 50 µM aggregated 24 hours, then compound 0 - 500 µM for 48 hours at 37 °C; concentration disaggregating 50 % of aggregates vs control; read-out: EC50 (µM) Aβ

Use these answered entries as a reference point.
smiles_structure=Cc1ncsc1C1=C(c2cccnc2)C(=O)c2cc(NC(=O)CCc3ccccc3)ccc21 metric=EC50 test_value="20 to 100 µM"
smiles_structure=Cc1ncsc1C1=C(c2cccc(CN3CCN(C)CC3)c2)c2ccccc2C1=O metric=EC50 test_value="20 to 100 µM"
smiles_structure=O=C1C(c2cccc(N3CCOCC3)c2)=C(c2ccccc2)c2ccccc21 metric=EC50 test_value="< 20 µM"
smiles_structure=COCCOc1ccc2c(c1)C(=O)C(c1cccnc1)=C2c1scnc1C metric=EC50 test_value="20 to 100 µM"
smiles_structure=Cc1ncsc1C1=C(c2ccc(N3CCN(C)CC3)cc2)C(=O)c2cc(N3CCN(C)CC3)ccc21 metric=EC50 test_value="< 20 µM"

Give EC50 for each listed item.
1. Cc1ncsc1C1=C(c2ccc(N3CCN(C)CC3)cc2)C(=O)c2cc(N3CCN(CCO)CC3)ccc21
2. COc1ccc2c(c1)C(=O)C(c1cccnc1)=C2c1cnn(C)c1
3. COc1ccccc1C1=C(c2cccnc2)C(=O)c2cc(O)ccc21

### Response
< 20 µM
20 to 100 µM
100 to 250 µM

* * *

Would you kindly list EC50 for each of these compounds?
# target_entity: Tau-RD3 (Tau repeat domain 3) (Homo sapiens)
# Sequence (P10636 623-653 limits assumed): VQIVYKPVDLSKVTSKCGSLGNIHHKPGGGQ
# assay_protocol: Tau disaggregation test by Thioflavin-T analysis
# Type: biochemical
# condition_label: Tau-RD3 35 µM aggregated 24 hours, then compound 0 - 500 µM for 48 hours at 37 °C; concentration disaggregating 50 % of aggregates vs control; read-out: EC50 (µM) Tau

Use these answered entries as a reference point.
smiles_structure=Cc1ccccc1C1=C(c2ccccc2)C(=O)c2ccccc21 metric=EC50 test_value="> 250 µM"
smiles_structure=O=C1C(N2CCOCC2)=C(c2ccccc2)c2ccccc21 metric=EC50 test_value="20 to 100 µM"
smiles_structure=Cc1ncsc1C1=C(c2cccnc2)C(=O)c2cc(NCCCc3ccccc3)ccc21 metric=EC50 test_value="< 20 µM"
smiles_structure=Cc1cccc(C)c1C1=C(c2ccccc2)C(=O)c2cc(Cl)ccc21 metric=EC50 test_value="> 250 µM"
smiles_structure=Cc1ncsc1C1=C(C#N)C(=O)c2cc(OCCCc3ccccc3)ccc21 metric=EC50 test_value="100 to 250 µM"

Give EC50 for each listed item.
1. O=C1C(c2ccccc2)=C(c2cccnc2)c2ccccc21
2. Cc1cccc(C)c1C1=C(c2ccccc2)C(=O)c2cc(N3CCN(C)CC3)ccc21
3. O=C1C(c2cccc(N3CCOCC3)c2)=C(c2ccccc2)c2ccccc21

### Response
20 to 100 µM
< 20 µM
> 250 µM

* * *

Would you kindly list EC50 for each of these compounds?
# target_entity: Tau-RD3 (Tau repeat domain 3) (Homo sapiens)
# assay_protocol: Tau disaggregation test by Thioflavin-T analysis
# Assay type: biochemical
# condition_label: Tau-RD3 35 µM aggregated 24 hours, then compound 0 - 500 µM for 48 hours at 37 °C; concentration disaggregating 50 % of aggregates vs control; read-out: EC50 (µM) Tau
# Procedure: Each compound was dissolved in DMSO to a concentration of 10 mM. Then, the compounds were diluted with 6 % DMSO (in DW) for use. […] 25 µL of each completed reaction solution was added to each well of a 96-well fluorescence analysis plate, and 75 µL of the Thioflavin-T solution was added to each well. After reacting for 5 minutes at room temperature in the dark, the fluorescence value was measured at 450 nm (excitation) and 485 nm (emission) using a multi-mode microplate reader. […]

compound="Cc1ncsc1C1=C(c2cc[nH]n2)C(=O)c2cc(OCCCc3ccccc3)ccc21 [Compound 25]" test_value="> 250 µM"
compound="Cc1ncsc1C1=C(c2cnccn2)C(=O)c2cc(O)ccc21 [Compound 41-4]" test_value="> 250 µM"
compound="Cc1ncsc1C1=C(c2cccnc2)C(=O)c2cc(O)ccc21 [Compound 35]" test_value="20 to 100 µM"
compound="Cc1cc(N2CCN(C)CC2)cc2c1C(c1ccccc1)=C(c1ccccc1)C2=O [Compound 71]" test_value="100 to 250 µM"
compound="Cc1ccncc1C1=C(c2scnc2C)c2ccc(OCCCc3ccccc3)cc2C1=O [Compound 21]" test_value="< 20 µM"
compound="Cc1ncsc1C1=C(c2cccnc2)C(=O)c2cc(NCCO)ccc21 [Compound 53]" test_value="> 250 µM"
compound="Cc1ccccc1C1=C(c2ccccc2C(=O)O)C(=O)c2ccccc21 [Compound 99-8]" test_value="20 to 100 µM"

Now, please, on to the next compound.
### Prompt Bench note: what EC50 did Cc1ncsc1C1=C(c2cccnc2)C(=O)c2cc(OCCCc3ccccc3)cc(O)c21 [Compound 48] show?
### Response > 250 µM

From: patent EP4745117A1
